Each recorded value in this set is attributed to ChEMBL document CHEMBL5338715.

- Tested on: BaF3
- assay.text: cells
- conditions: Mus musculus, BaF3, 72 h
Let's look at some compounds and their measured IC50.

| compound | IC50, nM |
| --- | --- |
| CCN1CCN(CCCOc2cc3nccc(Oc4ccc(NC(=O)NN5C(=O)CSC5c5c(F)cccc5F)cc4)c3cc2OC)CC1 (stereo not drawn) | 59 |
| CCN1CCN(CCCOc2cc3nccc(Oc4c(F)cc(NC(=O)NN5C(=O)CSC5c5ccc(F)cc5F)cc4F)c3cc2OC)CC1 (racemic) | 57 |
| CCN(CC)CCCOc1cc2nccc(Oc3ccc(NC(=O)NN4C(=O)CSC4c4c(F)cccc4F)cc3OC)c2cc1OC (stereo not drawn) | 110 |
| CCN1CCN(CCCOc2cc3nccc(Oc4c(F)cc(NC(=O)NN5C(=O)CSC5c5ccc(F)cc5)cc4F)c3cc2OC)CC1 (stereo not drawn) | 71 |
| CCN(CC)CCCOc1cc2nccc(Oc3ccc(C(=O)NN4C(=O)CSC4c4c(F)cccc4F)cc3)c2cc1OC (stereo not drawn) | 330 |
| CCN1CCN(CCCOc2cc3nccc(Oc4c(F)cc(NC(=O)NN5C(=O)CSC5c5c(F)cccc5F)cc4F)c3cc2OC)CC1 (stereo not drawn) | 45 |
| CCN1CCN(CCCOc2cc3nccc(Oc4c(F)cc(NC(=O)NN5C(=O)CSC5c5ccccc5)cc4F)c3cc2OC)CC1 (stereo not drawn) | 140 |
| COc1cc2nccc(Oc3c(F)cc(NC(=O)NN4C(=O)CSC4c4c(F)cccc4F)cc3F)c2cc1OC (stereo not drawn) | 170 |

----------
IC50 overview
- Tested on: BaF3
- assay.text: cells
- conditions: Mus musculus, BaF3, 72 h
property.label: IC50 (nM)

| compound | unit.of.measurement | obs.value |
| --- | --- | --- |
| CCN(CC)CCCOc1cc2nccc(Oc3c(F)cc(NC(=O)NN4C(=O)CSC4c4c(F)cccc4F)cc3F)c2cc1OC (centres undefined) | nM | 94 |
| CCN(CC)CCCOc1cc2nccc(Oc3ccc(NC(=O)NN4C(=O)CSC4c4c(F)cccc4F)cc3)c2cc1OC (centres undefined) | nM | 58 |
| CCN(CC)CCCOc1cc2nccc(Oc3ccc(CC(=O)NN4C(=O)CSC4c4c(F)cccc4F)cc3)c2cc1OC (centres undefined) | nM | 1300 |
| CCN(CC)CCCOc1cc2nccc(Nc3ccc(NC(=O)NN4C(=O)CSC4c4c(F)cccc4F)cc3)c2cc1OC (centres undefined) | nM | 2100 |
| COc1cc2c(Oc3ccc(NC(=O)NN4C(=O)CSC4c4c(F)cccc4F)cc3)ccnc2cc1OCCCN1CCCC1 (centres undefined) | nM | 66 |
| CCN(CC)CCCOc1cc2nc(N)cc(Oc3ccc(NC(=O)NN4C(=O)CSC4c4c(F)cccc4F)cc3)c2cc1OC (centres undefined) | nM | 3300 |
| CCN1CCN(CCCOc2cc3nccc(Oc4c(F)cc(NC(=O)NN5C(=O)CSC5c5ccccc5F)cc4F)c3cc2OC)CC1 (centres undefined) | nM | 53 |
| CCN(CC)CCCOc1cc2nccc(Oc3ccc(NC(=O)NN4C(=O)CSC4c4c(F)cccc4F)cc3C)c2cc1OC (centres undefined) | nM | 460 |
| CCN(CC)CCCOc1cc2nccc(N(C)c3ccc(NC(=O)NN4C(=O)CSC4c4c(F)cccc4F)cc3)c2cc1OC (centres undefined) | nM | 2200 |

----------
- Test system: HT-29
- assay.text: cells
- conditions: Homo sapiens
pIC50: −log10 of the molar value.
Each entry below lists one item and its recorded pIC50 value.
property.label: pIC50

| molecule | obs.value |
| --- | --- |
| CCN1CCN(CCCOc2cc3nccc(Oc4ccc(NC(=O)NN5C(=O)CSC5c5c(F)cccc5F)cc4)c3cc2OC)CC1 (centres undefined) | 6.66 |
| CCN(CC)CCCOc1cc2nccc(Oc3ccc(NC(=O)NN4C(=O)CSC4c4c(F)cccc4F)cc3OC)c2cc1OC (centres undefined) | 6.17 |
| CNC(=O)c1cc(Oc2ccc(NC(=O)Nc3ccc(Cl)c(C(F)(F)F)c3)c(F)c2)ccn1 [REGORAFENIB] | 5.07 |
| CCN1CCN(CCCOc2cc3nccc(Oc4c(F)cc(NC(=O)NN5C(=O)CSC5c5c(F)cccc5F)cc4F)c3cc2OC)CC1 (centres undefined) | 7.16 |

----------
- assay.text: Metabolic stability in human liver microsomes assessed as half life at 1 uM measured upto 45 mins in presence of NADPH by LC-MS/MS analysis
- Format: ADME, Microsome
Readings of half-life at 1 µM for the listed compounds

| compound | half-life at 1 µM |
| --- | --- |
| CCN1CCN(CCCOc2cc3nccc(Oc4c(F)cc(NC(=O)NN5C(=O)CSC5c5ccccc5F)cc4F)c3cc2OC)CC1 (configuration not stated) | 2.17 h |
| CCN1CCN(CCCOc2cc3nccc(Oc4c(F)cc(NC(=O)NN5C(=O)CS[C@@H]5c5ccc(F)cc5F)cc4F)c3cc2OC)CC1 | 2.58 h |
| O=c1ccc2ccc(O)cc2o1 | 0.1 h |
| CCN1CCN(CCCOc2cc3nccc(Oc4c(F)cc(NC(=O)NN5C(=O)CS[C@H]5c5ccc(F)cc5F)cc4F)c3cc2OC)CC1 | 2.83 h |
| C[C@]12CC[C@H]3[C@@H](CCC4=CC(=O)CC[C@@]43C)[C@@H]1CC[C@@H]2O | 0.177 h |
| CCN1CCN(CCCOc2cc3nccc(Oc4c(F)cc(NC(=O)NN5C(=O)CSC5c5ccc(F)cc5F)cc4F)c3cc2OC)CC1 (racemic) | 2.7 h |
| CCN1CCN(CCCOc2cc3nccc(Oc4c(F)cc(NC(=O)NN5C(=O)CSC5c5c(F)cccc5F)cc4F)c3cc2OC)CC1 (configuration not stated) | 1.47 h |

----------
Known IC50 of a selection of compounds
- assay.text: cells
- conditions: Homo sapiens, TT

| compound | IC50 [µM] |
| --- | --- |
| CCN1CCN(CCCOc2cc3nccc(Oc4c(F)cc(NC(=O)NN5C(=O)CSC5c5ccc(F)cc5F)cc4F)c3cc2OC)CC1 (racemic) | 0.78 |
| CCN1CCN(CCCOc2cc3nccc(Oc4c(F)cc(NC(=O)NN5C(=O)CSC5c5c(F)cccc5F)cc4F)c3cc2OC)CC1 (configuration not stated) | 2.3 |

----------
- System: HT-29
- assay.text: cells
- conditions: Homo sapiens

| compound | tgt | unit.of.measurement | IC50 |
| --- | --- | --- | --- |
| CCN(CC)CCCOc1cc2nccc(Oc3ccc(CC(=O)NN4C(=O)CSC4c4c(F)cccc4F)cc3)c2cc1OC (centres undefined) | HT-29 | nM | 1600 |
| CNC(=O)c1c(C)oc2cc(Oc3ncnc4cc(OC)c(OC)cc34)ccc12 | HT-29 | nM | 1500 |
| CCN(CC)CCCOc1cc2nccc(Oc3ccc(C(=O)NN4C(=O)CSC4c4c(F)cccc4F)cc3)c2cc1OC (centres undefined) | HT-29 | nM | 680 |
| CCN1CCN(CCCOc2cc3nccc(Oc4c(F)cc(NC(=O)NN5C(=O)CSC5c5ccc(F)cc5)cc4F)c3cc2OC)CC1 (centres undefined) | HT-29 | nM | 520 |
| CCN1CCN(CCCOc2cc3nccc(Oc4c(F)cc(NC(=O)NN5C(=O)CSC5c5ccccc5F)cc4F)c3cc2OC)CC1 (centres undefined) | HT-29 | nM | 110 |
| CCN(CC)CCCOc1cc2nccc(Oc3c(F)cc(NC(=O)NN4C(=O)CSC4c4c(F)cccc4F)cc3F)c2cc1OC (centres undefined) | HT-29 | nM | 140 |
| CCN1CCN(CCCOc2cc3nccc(Oc4c(F)cc(NC(=O)NN5C(=O)CSC5c5ccccc5)cc4F)c3cc2OC)CC1 (centres undefined) | HT-29 | nM | 140 |
| CCN(CC)CCCOc1cc2nccc(Nc3ccc(NC(=O)NN4C(=O)CSC4c4c(F)cccc4F)cc3)c2cc1OC (centres undefined) | HT-29 | nM | 5500 |
| CCN1CCN(CCCOc2cc3nccc(Oc4c(F)cc(NC(=O)NN5C(=O)CSC5c5ccc(F)cc5F)cc4F)c3cc2OC)CC1 (racemic) | HT-29 | nM | 530 |

----------
- tgt: Hepatocyte growth factor receptor (Homo sapiens, UniProt P08581)
- Sequence (P08581 whole entry): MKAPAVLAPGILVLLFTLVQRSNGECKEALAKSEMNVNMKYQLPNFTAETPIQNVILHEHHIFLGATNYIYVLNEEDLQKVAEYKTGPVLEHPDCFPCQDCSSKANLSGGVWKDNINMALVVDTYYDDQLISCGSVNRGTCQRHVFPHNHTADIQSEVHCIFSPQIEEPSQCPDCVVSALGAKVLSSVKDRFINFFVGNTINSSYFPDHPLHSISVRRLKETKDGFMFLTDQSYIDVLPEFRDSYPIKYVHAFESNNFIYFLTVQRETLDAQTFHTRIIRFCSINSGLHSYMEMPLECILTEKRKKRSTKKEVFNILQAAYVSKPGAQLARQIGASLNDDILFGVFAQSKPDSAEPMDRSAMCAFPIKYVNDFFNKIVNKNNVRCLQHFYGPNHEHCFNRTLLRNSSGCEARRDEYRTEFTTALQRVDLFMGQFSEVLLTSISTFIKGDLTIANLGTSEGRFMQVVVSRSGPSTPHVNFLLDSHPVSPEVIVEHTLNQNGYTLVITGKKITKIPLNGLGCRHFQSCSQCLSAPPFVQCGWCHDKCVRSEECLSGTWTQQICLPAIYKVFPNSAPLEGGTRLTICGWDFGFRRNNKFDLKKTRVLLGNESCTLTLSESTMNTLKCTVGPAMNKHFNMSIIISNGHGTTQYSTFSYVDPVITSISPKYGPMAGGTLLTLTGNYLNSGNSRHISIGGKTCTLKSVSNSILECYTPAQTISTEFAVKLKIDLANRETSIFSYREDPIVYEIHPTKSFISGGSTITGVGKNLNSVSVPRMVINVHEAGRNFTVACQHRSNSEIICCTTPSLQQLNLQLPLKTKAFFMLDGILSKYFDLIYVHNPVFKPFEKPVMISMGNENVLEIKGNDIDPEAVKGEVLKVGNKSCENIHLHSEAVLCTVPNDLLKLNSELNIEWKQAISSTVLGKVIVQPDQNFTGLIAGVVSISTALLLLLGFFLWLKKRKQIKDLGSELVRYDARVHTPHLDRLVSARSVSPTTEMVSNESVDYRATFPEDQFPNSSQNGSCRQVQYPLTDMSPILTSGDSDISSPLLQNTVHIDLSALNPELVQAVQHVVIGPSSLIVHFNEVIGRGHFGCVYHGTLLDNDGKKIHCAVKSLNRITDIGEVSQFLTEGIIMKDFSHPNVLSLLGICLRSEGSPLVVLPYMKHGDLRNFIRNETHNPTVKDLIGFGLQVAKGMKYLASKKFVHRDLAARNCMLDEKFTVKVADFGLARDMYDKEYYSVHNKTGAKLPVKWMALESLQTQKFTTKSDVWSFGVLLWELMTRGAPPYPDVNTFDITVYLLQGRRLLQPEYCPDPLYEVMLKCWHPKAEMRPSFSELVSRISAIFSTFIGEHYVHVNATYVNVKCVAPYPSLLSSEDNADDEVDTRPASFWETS
pIC50: −log10 of the molar value.

| smiles.notation | pIC50 |
| --- | --- |
| O=C(Nc1ccc(Oc2ccnc3c2CCN3)c(F)c1)c1c[nH]cc(-c2ccc(F)cc2)c1=O | 8.22 |

----------
Reported pIC50 by item:
- Tested on: BaF3
- assay.text: cells
- conditions: Mus musculus, BaF3, 72 h
pIC50: −log10 of the molar value.

| compound | sign | pIC50 |
| --- | --- | --- |
| CCN(CC)CCCOc1cc2nc(N)cc(Oc3ccc(NC(=O)NN4C(=O)CSC4c4c(F)cccc4F)cc3)c2cc1OC (stereo unspecified) | < | 5.00 |
| COc1cc2c(Oc3ccc(NC(=O)NN4C(=O)CSC4c4c(F)cccc4F)cc3)ccnc2cc1OCCCN1CCCC1 (stereo unspecified) | = | 6.82 |
| CCN1CCN(CCCOc2cc3nccc(Oc4c(F)cc(NC(=O)NN5C(=O)CSC5c5ccccc5)cc4F)c3cc2OC)CC1 (stereo unspecified) | = | 6.59 |
| CCN(CC)CCCOc1cc2nccc(Oc3c(F)cc(NC(=O)NN4C(=O)CSC4c4c(F)cccc4F)cc3F)c2cc1OC (stereo unspecified) | = | 6.66 |
| CCN1CCN(CCCOc2cc3nccc(Oc4c(F)cc(NC(=O)NN5C(=O)CSC5c5ccc(F)cc5)cc4F)c3cc2OC)CC1 (stereo unspecified) | = | 6.85 |
| CCN(CC)CCCOc1cc2nccc(Oc3ccc(NC(=O)NN4C(=O)CSC4c4c(F)cccc4F)cc3)c2cc1OC (stereo unspecified) | = | 6.92 |
